assayedTarget: Lysosomal acid glucosylceramidase (Homo sapiens) (UniProt P04062)
Sequence (P04062 whole entry, looked up): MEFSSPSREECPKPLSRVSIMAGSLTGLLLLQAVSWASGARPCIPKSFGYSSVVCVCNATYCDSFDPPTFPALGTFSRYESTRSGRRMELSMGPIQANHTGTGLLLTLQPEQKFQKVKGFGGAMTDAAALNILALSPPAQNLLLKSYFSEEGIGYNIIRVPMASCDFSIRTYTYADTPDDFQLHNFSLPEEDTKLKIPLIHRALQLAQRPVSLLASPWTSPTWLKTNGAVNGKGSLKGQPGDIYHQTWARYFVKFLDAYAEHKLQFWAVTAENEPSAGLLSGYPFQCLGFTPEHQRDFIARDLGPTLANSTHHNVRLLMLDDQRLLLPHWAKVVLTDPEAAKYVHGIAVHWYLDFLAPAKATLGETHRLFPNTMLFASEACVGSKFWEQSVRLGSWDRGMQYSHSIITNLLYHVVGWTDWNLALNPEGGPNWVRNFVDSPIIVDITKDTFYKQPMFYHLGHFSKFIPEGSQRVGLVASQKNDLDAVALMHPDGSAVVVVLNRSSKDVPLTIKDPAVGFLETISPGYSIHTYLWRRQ
measurementNotes: qHTS Assay for Inhibitors and Activators of N370S glucocerebrosidase as a Potential Chaperone Treatment of Gaucher Disease: Activity in Non-Mutant Spleen Confirmation for Probe SAR
measurementConditions: human spleen homogenate, 4-MU-beta-glucoside fluorescence; series mostly up to 57.5 µM
Results filed as inconclusive are left out. The source made the active and inactive calls. Calls follow the shape of the dose curve; as a rule, active = well fitted activation curve with a large enough effect; inconclusive = small, poorly fitted or top-dose-only effect; inactive = flat fitted curve, though single readings scatter.
assayMetric: Potency

Known results for compounds:
INSERT INTO measurements (smilesinput, assayedtarget, valuereported) VALUES
  ('Cc1cc(C)n2ncc(C(=O)NC(C)C)c2n1', 'Lysosomal acid glucosylceramidase (Homo sapiens) (UniProt P04062)', 'inactive'),
  ('Cc1cc(C)n2ncc(C(=O)Nc3ccc4c(c3)OCO4)c2n1', 'Lysosomal acid glucosylceramidase (Homo sapiens) (UniProt P04062)', '13 µM (active)'),
  ('Cc1cc(C)n2ncc(C(=O)N3CCCC3)c2n1', 'Lysosomal acid glucosylceramidase (Homo sapiens) (UniProt P04062)', 'inactive'),
  ('CNC(=O)c1cnn2c(C)cc(C)nc12', 'Lysosomal acid glucosylceramidase (Homo sapiens) (UniProt P04062)', 'inactive'),
  ('COc1ccc(NC(=O)c2cnn3c(C)cc(C)nc23)cc1', 'Lysosomal acid glucosylceramidase (Homo sapiens) (UniProt P04062)', '20.6 µM (active)');

# input for lookup
// query Given Cc1cc(C)n2ncc(C(=O)Nc3ccc(C)c(C)c3)c2n1 , respond with its Potency.
// result 4.11 µM (active)

* * *

assayedTarget: Lysosomal acid glucosylceramidase (Homo sapiens)
measurementNotes: qHTS Assay for Inhibitors and Activators of N370S glucocerebrosidase as a Potential Chaperone Treatment of Gaucher Disease: Activity in Non-Mutant Spleen Confirmation for Probe SAR
measurementConditions: human spleen homogenate, 4-MU-beta-glucoside fluorescence; series mostly up to 57.5 µM
Results filed as inconclusive are left out. The source made the active and inactive calls. Calls follow the shape of the dose curve; as a rule, active = well fitted activation curve with a large enough effect; inconclusive = small, poorly fitted or top-dose-only effect; inactive = flat fitted curve, though single readings scatter.
assayMetric: Potency

INSERT INTO results (smilesinput, assaymetric, valuereported) VALUES
  ('Cc1ccc(NC(=O)c2cnn3c(C)cc(C)nc23)cc1', 'Potency', '3.26 µM (active)'),
  ('CC(=O)Nc1ccccc1NC(=O)c1cnn2c(C)cc(C)nc12', 'Potency', 'inactive'),
  ('Cc1cccc(NC(=O)c2cnn3c(C)cc(C)nc23)c1', 'Potency', '8.19 µM (active)'),
  ('Cc1cc(C)n2ncc(C(=O)Nc3ccc(Br)cc3)c2n1', 'Potency', '2.06 µM (active)'),
  ('COc1ccc(NC(=O)c2cnn3c(C)cc(C)nc23)cc1OC', 'Potency', 'inactive');

Now look at this one.
// query Supply measured Potency of Cc1cc(C)n2ncc(C(=O)Nc3cccc(C#N)c3)c2n1 in your reply.
// result inactive
